tested on: L1210; assay: in vitro cytotoxic activity (L1210); conditions: L1210
pIC50: −log10 of the molar value.
Value type: pIC50

[[record]]
compound = "COc1c(O)c2c(c3cc(C(=O)N4CCc5c4c(O)c(OC)c4[nH]c(C(=O)N6C[C@H]7C[C@@]78C6=CC(=O)c6[nH]cc(C)c68)cc54)[nH]c13)CCN2C(N)=O [(+)-CC-1065, CC-1065]"
numeric_readout = 10.70

